- Tested on: L. dispar larvae
- run_description: Larvicidal toxicity, treated filter paper in Petri dish
- Assay type: in vivo
- run_parameters: 1st stage larvae, 24 hr
Field: LC50 (95% CL). Provide a value for each of the compounds that follow.

**Query** GET /values?readout=LC50 (95% CL)&item= COC(=O)c1ccccc1OC [M2MOB, methyl 2-methoxybenzoate]
**Result** 0.230 (0.170-0.294) mg/cm^2

**Query** GET /values?readout=LC50 (95% CL)&item= CC(COc1ccc(Oc2ccccc2)cc1)Oc1ccccn1 (stereo not shown) [PF, pyriproxyfen, reference compound]
**Result** 0.086 (0.057-0.124) mg/cm^2

**Query** GET /values?readout=LC50 (95% CL)&item= CCOC(=O)c1ccccc1 [EB, ethyl benzoate]
**Result** 0.115 (0.107-0.123) mg/cm^2

**Query** GET /values?readout=LC50 (95% CL)&item= COC(=O)c1cccc(OC)c1 [M3MOB, methyl 3-methoxybenzoate]
**Result** 0.234 (0.216-0.258) mg/cm^2

**Query** GET /values?readout=LC50 (95% CL)&item= CCCCOC(=O)c1ccccc1 [nBB, n-butyl benzoate]
**Result** 0.276 (0.223-0.393) mg/cm^2

**Query** GET /values?readout=LC50 (95% CL)&item= COC(=O)c1ccccc1 [MB, methyl benzoate]
**Result** 0.114 (0.091-0.134) mg/cm^2

**Query** GET /values?readout=LC50 (95% CL)&item= COC(=O)c1ccccc1C [M2MB, methyl 2-methylbenzoate]
**Result** 0.155 (0.134-0.174) mg/cm^2

**Query** GET /values?readout=LC50 (95% CL)&item= CCCCCOC(=O)c1ccccc1 [nPeB, n-pentyl benzoate]
**Result** 0.165 (0.118-0.208) mg/cm^2

**Query** GET /values?readout=LC50 (95% CL)&item= C=COC(=O)c1ccccc1 [VB, vinyl benzoate]
**Result** 0.065 (0.059-0.071) mg/cm^2

**Query** GET /values?readout=LC50 (95% CL)&item= COC(=O)c1ccccc1Cl [M2CB, methyl 2-chlorobenzoate]
**Result** 0.130 (0.097-0.159) mg/cm^2
